Value source: patent US20240376121A1

- assayTarget: HiBit-BRM fusion protein (Homo sapiens, UniProt P51531)
- Construct: expressed in transfected cells
- Sequence (P51531 whole entry, the tested form may be a part): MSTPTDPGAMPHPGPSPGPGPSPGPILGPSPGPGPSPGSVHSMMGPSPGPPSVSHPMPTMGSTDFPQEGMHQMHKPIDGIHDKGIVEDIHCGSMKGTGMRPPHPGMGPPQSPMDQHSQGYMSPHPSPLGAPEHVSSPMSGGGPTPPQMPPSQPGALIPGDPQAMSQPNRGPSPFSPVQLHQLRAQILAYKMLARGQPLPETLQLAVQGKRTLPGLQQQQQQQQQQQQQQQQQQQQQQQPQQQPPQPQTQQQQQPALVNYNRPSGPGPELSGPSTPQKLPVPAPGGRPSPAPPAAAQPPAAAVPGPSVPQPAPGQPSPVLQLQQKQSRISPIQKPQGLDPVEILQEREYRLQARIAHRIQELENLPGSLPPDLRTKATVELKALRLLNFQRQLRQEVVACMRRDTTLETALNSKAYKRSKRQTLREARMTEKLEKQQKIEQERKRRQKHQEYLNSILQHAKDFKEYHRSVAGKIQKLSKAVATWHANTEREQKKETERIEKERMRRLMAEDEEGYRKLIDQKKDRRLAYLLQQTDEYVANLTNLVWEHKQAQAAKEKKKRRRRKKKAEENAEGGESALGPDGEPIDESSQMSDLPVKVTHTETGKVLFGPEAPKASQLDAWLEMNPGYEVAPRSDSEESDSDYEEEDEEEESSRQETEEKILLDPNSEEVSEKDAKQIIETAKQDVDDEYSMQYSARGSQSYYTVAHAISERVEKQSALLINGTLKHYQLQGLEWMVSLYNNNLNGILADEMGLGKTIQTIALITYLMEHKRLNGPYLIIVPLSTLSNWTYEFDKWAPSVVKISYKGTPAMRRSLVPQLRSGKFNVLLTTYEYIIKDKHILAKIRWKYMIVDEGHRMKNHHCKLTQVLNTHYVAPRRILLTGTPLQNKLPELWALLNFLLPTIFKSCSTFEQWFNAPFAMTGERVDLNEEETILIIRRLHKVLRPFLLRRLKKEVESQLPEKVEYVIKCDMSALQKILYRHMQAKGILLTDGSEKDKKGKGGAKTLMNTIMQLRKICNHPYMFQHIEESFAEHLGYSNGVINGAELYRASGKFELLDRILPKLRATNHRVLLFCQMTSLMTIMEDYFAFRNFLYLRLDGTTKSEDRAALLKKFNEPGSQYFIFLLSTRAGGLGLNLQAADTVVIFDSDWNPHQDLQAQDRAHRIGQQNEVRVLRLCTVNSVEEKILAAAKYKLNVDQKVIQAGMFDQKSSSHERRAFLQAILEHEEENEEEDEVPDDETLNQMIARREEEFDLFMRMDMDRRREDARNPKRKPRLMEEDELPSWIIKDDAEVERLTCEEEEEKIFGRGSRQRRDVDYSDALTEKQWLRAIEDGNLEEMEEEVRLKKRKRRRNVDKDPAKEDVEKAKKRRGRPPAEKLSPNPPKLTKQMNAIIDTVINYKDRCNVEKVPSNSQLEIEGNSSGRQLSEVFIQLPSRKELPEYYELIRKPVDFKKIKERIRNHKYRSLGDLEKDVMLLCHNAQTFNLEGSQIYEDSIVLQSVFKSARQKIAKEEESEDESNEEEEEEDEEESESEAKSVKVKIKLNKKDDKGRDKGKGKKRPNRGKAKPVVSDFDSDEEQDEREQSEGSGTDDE
- methodNotes: HiBiT-BRM cell-based degradation assay (Nano-Glo HiBiT Lytic Detection)
- experimentalContext: stable HeLa cell line expressing HiBiT-BRM, 24 h incubation; read-out: BRM HiBit Degradation IC50
Give measured DC50 for each item. Keep answers brief.

Find the recorded DC50 belonging to `Cc1ncsc1-c1ccc([C@H](C)NC(=O)[C@@H]2C[C@@H](O)CN2C(=O)[C@@H](c2cc(OCCN3CC(Cc4sc5nnc(-c6ccccc6O)cc5c4C)C3)no2)C(C)C)cc1` and report it.
≥ 10 nM

For the compound shown here, `Cc1ncsc1-c1ccc([C@H](C)NC(=O)[C@@H]2C[C@@H](O)CN2C(=O)[C@@H](c2cc(OCCN3CCC(c4sc5nnc(-c6ccccc6O)cc5c4Cl)CC3)no2)C(C)C)cc1` , give the reported DC50.
≥ 10 nM

// query DC50 value for entry Cc1ncsc1-c1ccc(CNC(=O)[C@@H]2C[C@@H](O)CN2C(=O)[C@H](c2cc(N3CCOCC3)no2)C(C)C)c(OCCCN2CCC(c3sc4nnc(-c5ccccc5O)cc4c3C)CC2)c1 (single isomer, unassigned)
≥ 1000 nM

* * *

Hi there, I'd appreciate the recorded DC50 for every entry that follows.
- assayTarget: HiBit-BRM fusion protein (Homo sapiens)
- Construct: expressed in transfected cells
- methodNotes: HiBiT-BRM cell-based degradation assay (Nano-Glo HiBiT Lytic Detection)
- experimentalContext: stable HeLa cell line expressing HiBiT-BRM, 24 h incubation; read-out: BRM HiBit Degradation IC50

Recorded DC50 of `Cc1ncsc1-c1ccc([C@H](C)NC(=O)[C@@H]2C[C@@H](O)CN2C(=O)[C@@H](c2cc(N3CCC(C(=O)N4CC(c5cc6nnc(-c7ccccc7O)cc6s5)C4)CC3)no2)C(C)C)cc1` , please.
≥ 0.01 µM

I would be grateful if you could share the reported DC50 for `Cc1ncsc1-c1ccc([C@H](C)NC(=O)[C@@H]2C[C@@H](O)CN2C(=O)[C@@H](c2cc(OCC(=O)N3CC(c4cc5nnc(-c6ccccc6O)cc5s4)C3)no2)C(C)C)cc1` .
≥ 1 µM

Consider the compound `Cc1ncsc1-c1ccc([C@H](C)NC(=O)[C@@H]2C[C@@H](O)CN2C(=O)[C@@H](c2cc(OCCN3CC(c4cc5cc(-c6ccccc6O)nnc5s4)C3)no2)C(C)C)cc1` and give its measured DC50.
≥ 0.01 µM

Entry under review: `Cc1ncsc1-c1ccc(CNC(=O)[C@@H]2C[C@@H](O)CN2C(=O)[C@@H](NC(=O)CCCCC(=O)N2CCC(c3cc4cc(-c5ccccc5O)nnc4s3)CC2)C(C)(C)C)cc1` . Reported DC50?
≥ 1 µM

Could you tell me which DC50 is on file for `Cc1ncsc1-c1ccc([C@H](C)NC(=O)[C@@H]2C[C@@H](O)CN2C(=O)[C@@H](c2cc(N3CCC(C(=O)N4CCC(c5sc6nnc(-c7ccccc7O)cc6c5C)CC4)CC3)no2)C(C)C)cc1` ?
< 0.01 µM

* * *

- assayTarget: HiBit-BRM fusion protein (Homo sapiens)
- Construct: expressed in transfected cells
- methodNotes: HiBiT-BRM cell-based degradation assay (Nano-Glo HiBiT Lytic Detection)
- experimentalContext: stable HeLa cell line expressing HiBiT-BRM, 24 h incubation; read-out: BRM HiBit Degradation IC50
propertyMeasured: DC50

Form: Entry = Cc1ncsc1-c1ccc(CNC(=O)[C@@H]2C[C@@H](O)CN2C(=O)[C@@H](c2cc(N3CCOCC3)no2)C(C)C)c(OCCCN2CCC(c3sc4nnc(-c5ccccc5O)cc4c3C)CC2)c1 (single isomer, unassigned) | System = HiBit-BRM fusion protein (Homo sapiens) | DC50 = ____
≥ 10 nM

What reported DC50 corresponds to `Cc1ncsc1-c1ccc([C@H](C)NC(=O)[C@@H]2C[C@@H](O)CN2C(=O)[C@@H](c2cc(N3CCC(C(=O)N4CC(c5sc6nnc(-c7ccccc7O)cc6c5C)C4)CC3)no2)C(C)C)cc1` on HiBit-BRM fusion protein (Homo sapiens)?
≥ 10 nM

Any idea what DC50 came out for `Cc1ncsc1-c1ccc([C@H](C)NC(=O)[C@@H]2C[C@@H](O)CN2C(=O)[C@@H](c2cc(OCCCN3CCc4sc5nnc(-c6ccccc6O)cc5c4C3)no2)C(C)C)cc1` on HiBit-BRM fusion protein (Homo sapiens)?
≥ 1000 nM

Which measured DC50 belongs to `Cc1ncsc1-c1ccc([C@H](C)NC(=O)[C@@H]2C[C@@H](O)CN2C(=O)[C@@H](c2cc(OCCN3C[C@H]4C[C@@H]3C[C@H]4c3sc4nnc(-c5ccccc5O)cc4c3C)no2)C(C)C)cc1` , tested on HiBit-BRM fusion protein (Homo sapiens)?
≥ 10 nM

What value of DC50 on HiBit-BRM fusion protein (Homo sapiens) does `Cc1ncsc1-c1ccc([C@H](C)NC(=O)[C@@H]2C[C@@H](O)CN2C(=O)[C@@H](c2cc(OCC(=O)N3CCC(c4sc5nnc(-c6ccccc6O)cc5c4C)CC3)no2)C(C)C)cc1` have?
≥ 10 nM
